Field: Test A disease control rating. Provide a value for each of the compounds that follow.
- Tested on: Puccinia recondita f. sp. tritici
- Assay Overview: Test A: wheat leaf rust, preventive spray on wheat seedlings, visual disease rating
- Type: in vivo
- Test Parameters: 250 ppm test suspension (*)
Marks after values point to notes of the source that are not given here.

Cc1nn(C)c(Nc2ccc(F)cc2)c1C1CCC(C)CC1 (centres unmarked) [Compound 64] | 55* %
Cc1nn(C)c(Nc2ccc(F)cc2Cl)c1C1CCC(C#N)CC1 (centres unmarked) [Compound 65] | 55* %
Cc1nn(C)c(Oc2ccc(F)cc2Cl)c1C1=NOC(C#N)C1 (centres unmarked) [Compound 55] | 0* %

Parameters: items (list). Returns: Test A disease control rating for each item.
1. Cc1nn(C)c(Nc2ccc(F)cc2Cl)c1C1CCC(C)CC1 (centres unmarked) [Compound 61]
2. CON=C(C)c1c(C)nn(C)c1Nc1ccc(F)cc1Cl [Compound 30]

1. 0* %
2. 80* %
